Values compiled from PubChem BioAssay (NCI).

- Test system: OVCAR-4 ovarian
- assay_info: NCI-60 one-dose screen, 48 h
- assay_conditions: 10 µM unless noted
- Experimental: Growth inhibition of the OVCAR-4 human tumor cell line is measured as a screen for anti-cancer activity. Cells are grown in 96 well plates and exposed to the test compound for 48 hours. Compounds are tested at a single concentration, which is 10^-5 M for most compounds. The reported endpoint is percent growth (GI% or GIPRCNT), where numbers from 0 - 100% represent growth inhibition, and numbers from -100% - 0 represent cell death. For example, a value of 40 represents 60% growth inhibition. […]
This is part of a sample that, as a whole, favours compounds with a hit. Of some 83,000 tested, about 20% had one in any assay. Activity calls are given as the source filed them. How the source made its calls: active means growth percent below 10; inactive means the rest.
Outcomes: active, inactive

1) COc1ccc(NC(=O)COc2ccccc2)c(C(N)=O)c1	inactive
2) CCC(=O)Nc1nnc(Cc2ccc(OC)c(OC)c2)s1	active
3) COc1ccc(OC)c(/C=C2\Oc3cc(O)ccc3C2=O)c1	inactive
4) C1CCC([PH+](C2CCCCC2)C2CCCCC2[PH+](C2CCCCC2)C2CCCCC2)CC1.O=C(C1[CH-]CCCC1)C1CCCC[N-]1.[Au] (stereo not given)	inactive
5) CS(=O)(=O)Nc1cccc(C(=O)NCc2ccc(N3CCOCC3)cc2)c1	inactive
6) Nc1cc2[nH]c(=O)c3ccccc3c2cc1Br	inactive
7) COc1c(O)c2c3c(c1OC)-c1ccccc1CC3N(S(=O)(=O)c1ccc(C)cc1)CC2 (stereo not given)	inactive
8) Brc1ccc(SCN(CSc2ccc(Br)cc2)Cc2ccccc2)cc1	inactive
9) Clc1ccc(C2=NN(c3ccccc3)[C@H](c3cn(-c4ccccc4)nc3-c3ccccc3)C2)cc1	inactive
10) COc1cc(C2CC(=O)Nc3c2ccc2ccccc32)cc(Br)c1OC (stereo not given)	inactive
